Molecular target: Cry2 PHR (L348F)-p65AD-NLSx2 fusion construct as released from the TetR (I194T, 1-206)-CIB1 (-NLS)-T2A-Cry2 PHR (L348F)-p65AD-NLSx2 fusion construct
Sequence (Q96524 other isoform, or with tags, fused parts or gaps L348F I194T L348F L348F I194T L348F): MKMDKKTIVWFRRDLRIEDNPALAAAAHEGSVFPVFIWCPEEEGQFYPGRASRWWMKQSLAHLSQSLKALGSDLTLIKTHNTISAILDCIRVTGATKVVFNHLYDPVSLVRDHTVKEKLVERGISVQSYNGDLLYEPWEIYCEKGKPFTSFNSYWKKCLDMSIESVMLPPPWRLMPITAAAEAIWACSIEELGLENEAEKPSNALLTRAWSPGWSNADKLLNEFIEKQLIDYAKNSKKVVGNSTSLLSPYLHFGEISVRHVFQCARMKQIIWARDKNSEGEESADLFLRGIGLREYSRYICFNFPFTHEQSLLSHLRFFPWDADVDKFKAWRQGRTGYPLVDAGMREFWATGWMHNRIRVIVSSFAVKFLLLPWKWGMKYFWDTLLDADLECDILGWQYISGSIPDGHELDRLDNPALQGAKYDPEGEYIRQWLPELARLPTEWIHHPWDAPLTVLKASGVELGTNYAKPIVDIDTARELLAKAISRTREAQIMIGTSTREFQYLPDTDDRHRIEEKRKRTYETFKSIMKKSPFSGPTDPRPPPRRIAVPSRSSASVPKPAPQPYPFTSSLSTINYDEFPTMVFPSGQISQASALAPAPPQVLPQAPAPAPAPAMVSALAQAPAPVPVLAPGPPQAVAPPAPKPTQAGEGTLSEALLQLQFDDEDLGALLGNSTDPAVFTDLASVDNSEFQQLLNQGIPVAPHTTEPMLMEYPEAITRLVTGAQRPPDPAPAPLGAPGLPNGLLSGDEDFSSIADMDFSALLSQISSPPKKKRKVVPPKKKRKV
Experiment: cell-based or functional assay
Measured endpoint: Average of the Light/Dark ratio, Dox 0 ng/mL

{"Binder": "rTetR (I194T, V16 mutation, 1-206)-CIB1 (-NLS) from the T2A construct (protein, part only; not given: Leftover T2A residues, part only) chain, part: MARLDKSKIINSALELLNGVGIEGLTTRKLAQKLGVEQPTLYWHVKNKRALLDALPIEMLDRHHTHSCPLEGESWQDFLRNNAKSYRCALLSHRDGAKVHLGTRPTEKQYETLENQLAFLCQQGFSLENALYALSAVGHFTLGCVLEEQEHQVAKEERETPTTDSMPPLLKQAIELFDRQGAEPAFLFGLELITCGLEKQLKCESGSPKKKHMEFNGAIGGDLLLNFPDMSVLERQRAHLKYLNPTFDSPLAGFFADSSMITGGEMDSYLSTAGLNLPMMYGETTVEGDSRLSISPETTLGTGNFKAAKFDTETKDCNEAAKKMTMNRDDLVEEGEEEKSKITEQNNGSTKSIKKMKHKAKKEENNFSNDSSKVTKELEKTDYI", "Experimental value": 1.5}
{"Binder": "TetR (I194T, H100Y, 1-206)-CIB1 (-NLS) from the T2A construct (protein, part only, T2A residues at C-terminus) MARLDKSKVINSALELLNEVGIEGLTTRKLAQKLGVEQPTLYWHVKNKRALLDALAIEMLDRHHTHFCPLEGESWQDFLRNNAKSFRCALLSHRDGAKVYLGTRPTEKQYETLENQLAFLCQQGFSLENALYALSAVGHFTLGCVLEDQEHQVAKEERETPTTDSMPPLLRQAIELFDHQGAEPAFLFGLELITCGLEKQLKCESGSPKKKHMEFNGAIGGDLLLNFPDMSVLERQRAHLKYLNPTFDSPLAGFFADSSMITGGEMDSYLSTAGLNLPMMYGETTVEGDSRLSISPETTLGTGNFKAAKFDTETKDCNEAAKKMTMNRDDLVEEGEEEKSKITEQNNGSTKSIKKMKHKAKKEENNFSNDSSKVTKELEKTDYI", "Experimental value": 19}
